# Organism: Rattus norvegicus
# protocol-text: Open TG-GATES - Regimen: Single
# Format: toxicity, organism-based, Sprague-Dawley
# Parameters: regimen Single, gender Male, age 6 weeks
# particulars: in vivo, po, 0 mg/kg, 3 h, tissue Plasma, route gavage, dose level Control
This listing pairs compounds with measured RALB.
Supply the numeric figure in g/dL, leaving out any unit text.

                                   compound  readout_kind  reported
0           CCSCC[C@H](N)C(=O)O [ETHIONINE]          RALB       3.3
1          Nc1nc(N)c2nc(-c3ccccc3)c(N)nc2n1          RALB       2.6
2  C#C[C@]1(O)CC[C@H]2[C@@H]3CCc4cc(O)ccc4[C@H]3CC[C@@]21C [ETHINYL ESTRADIOL]          RALB       2.6
3  CCN1CCCC1CNC(=O)c1cc(S(N)(=O)=O)ccc1OC (stereo not given) [SULPIRIDE]          RALB       2.4
4  C[C@](N)(Cc1ccc(O)c(O)c1)C(=O)O [METHYLDOPA]          RALB       2.6
5                   O=C(O)c1cccnc1 [NIACIN]          RALB       2.9
6  CC(C)C(=O)Nc1ccc([N+](=O)[O-])c(C(F)(F)F)c1 [FLUTAMIDE]          RALB       3.5
7   CC(C)(S)[C@@H](N)C(=O)O [PENICILLAMINE]          RALB       2.6

[Q] State its RALB for this compound: O=C(N[C@H](CO)[C@H](O)c1ccc([N+](=O)[O-])cc1)C(Cl)Cl [CHLORAMPHENICOL]
[A] 2.5

[Q] State its RALB for this compound: CN1C(=O)OC(C)(C)C1=O [TRIMETHADIONE]
[A] 2.5

###

# Species: Rattus norvegicus
# protocol-text: Open TG-GATES - Regimen: Daily Repeat
# Assay type: toxicity, organism-based, Sprague-Dawley
# Design: regimen Daily Repeat, gender Male, age 6 weeks
# particulars: in vivo, po, 0 mg/kg, […], tissue Plasma, route gavage, dose level Control, time 28 day
readout-kind: IP (mg/dL)
Supply the numeric figure in mg/dL, leaving out any unit text.

[Q] State its IP for this compound: `CCC(C)(C)C(=O)O[C@H]1C[C@@H](C)C=C2C=C[C@H](C)[C@H](CC[C@@H]3C[C@@H](O)CC(=O)O3)[C@H]21`
[A] 5.9

[Q] State its IP for this compound: CC(=N)S [THIOACETAMIDE]
[A] 6.8

[Q] State its IP for this compound: `C[C@]12CCC(=O)C=C1CC[C@@H]1[C@@H]2CC[C@@]2(C)[C@H]1CC[C@]2(C)O`
[A] 6.2

[Q] State its IP for this compound: `C[C@](N)(Cc1ccc(O)c(O)c1)C(=O)O`
[A] 6

[Q] State its IP for this compound: `CN1C(=O)OC(C)(C)C1=O`
[A] 6

[Q] State its IP for this compound: `Nc1nc(N)c2nc(-c3ccccc3)c(N)nc2n1`
[A] 6.5

###

# Species: Rattus norvegicus
# protocol-text: Open TG-GATES - Regimen: Daily Repeat
# Format: toxicity, organism-based, Sprague-Dawley
# Design: regimen Daily Repeat, gender Male, age 6 weeks
# particulars: in vivo, po, 300 mg/kg, […], tissue Blood, route gavage, dose level Middle, time 7 day
readout-kind: RBC (x10_4/ul)
Supply the numeric figure in x10_4/ul, leaving out any unit text.

>>> df
                                   molecule  reported
0  O=C(N[C@H](CO)[C@H](O)c1ccc([N+](=O)[O-])cc1)C(Cl)Cl [CHLORAMPHENICOL]     668.6

[Q] State its RBC for this molecule: CCN1CCCC1CNC(=O)c1cc(S(N)(=O)=O)ccc1OC (centres undefined) [SULPIRIDE]
[A] 692.4

[Q] State its RBC for this molecule: O=C(O)c1cccnc1 [NIACIN]
[A] 652.2

[Q] State its RBC for this molecule: CC(C)(S)[C@@H](N)C(=O)O [PENICILLAMINE]
[A] 652.2
